Sourced from paper PMC2800207

Recorded measurements of Kd, one per entry
- ASSAYED SYSTEM: NusB (Escherichia coli, UniProt P0A780 1-139)
- ASSAY DETAILS: fluorescence anisotropy
READOUT NAME: Kd

binder="CGCUCUUA (ssRNA) [nutR BoxA]" readout_name=Kd observed_value="1600 nM"
binder="CGCUAUUACACAUUCCA (ssRNA) [nutR BoxA16-spacer (C38A)]" readout_name=Kd observed_value="5100 nM"
binder="CACUGCUCUUUAACAAUUA (ssRNA) [rrnG BoxA-spacer]" readout_name=Kd observed_value="130 nM"
binder="UGCUCUUUA (ssRNA) [rrnG BoxA]" readout_name=Kd observed_value="200 nM"
binder="CGCUCUUAAAAAUUAA (ssRNA) [nutL BoxA-spacer]" readout_name=Kd observed_value="2200 nM"
binder="CGCUCGUACACAUUCCA (ssRNA) [nutR BoxA(U39G)-spacer]" readout_name=Kd observed_value="1600 nM"
